target_system: Human LBAT (Homo sapiens)
Construct: Geneticin-selected
Sequence (Q14973 whole entry): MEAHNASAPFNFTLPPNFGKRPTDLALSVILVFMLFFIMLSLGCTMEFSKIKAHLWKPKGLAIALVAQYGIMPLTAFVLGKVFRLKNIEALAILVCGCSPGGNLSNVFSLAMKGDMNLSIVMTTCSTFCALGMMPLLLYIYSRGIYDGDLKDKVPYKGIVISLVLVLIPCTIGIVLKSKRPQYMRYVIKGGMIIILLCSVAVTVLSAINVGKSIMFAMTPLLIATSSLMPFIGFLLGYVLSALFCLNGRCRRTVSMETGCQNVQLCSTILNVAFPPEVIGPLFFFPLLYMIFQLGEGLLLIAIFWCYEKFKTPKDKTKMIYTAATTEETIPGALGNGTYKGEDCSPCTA
assay_method_text: LBAT (h/m) assay, human LBAT-overexpressing cells, 3H-taurocholic acid uptake
condition_description: 0.3 μM 3H-taurocholic acid and 7.5 μM cold taurocholic acid, 20 minutes, read-out: hLBAT IC50
pIC50: −log10 of the molar value.
measure_name: pIC50

[[record]]
molecule = "CCCCC1(CC)CN(c2ccccc2)c2cc(SC)c(OCC(O)C(=O)O)cc2S(=O)(=O)C1 (single isomer, unassigned) [40, diastereomer 3]"
target_system = "Human LBAT (Homo sapiens)"
readout_number = 6.18

[[record]]
molecule = "CCCCC1(C)CN(c2ccccc2)c2cc(SC)c(OCC(C)(O)C(=O)O)cc2S(=O)(=O)C1 (single isomer, unassigned) [33, diastereomer 4]"
target_system = "Human LBAT (Homo sapiens)"
readout_number = 6.24

[[record]]
molecule = "CCCCC1(CC)CN(c2ccccc2)c2cc(Cl)c(OC(C)CC(=O)O)cc2S(=O)(=O)C1 (single isomer, unassigned) [30, diastereomers 3 and 4]"
target_system = "Human LBAT (Homo sapiens)"
readout_number = 6.09

[[record]]
molecule = "CCCCC1(CC)CN(c2ccc(F)cc2)c2cc(SC)c(OCC(O)C(=O)O)cc2S(=O)(=O)C1 (single isomer, unassigned) [42, diastereomer 2]"
target_system = "Human LBAT (Homo sapiens)"
readout_number = 5.64


[A] CCCCC1(CC)CN(c2ccccc2)c2cc(Cl)c(OCCC(=O)O)cc2S(=O)(=O)C1 (racemic) [Example 5]
[B] CCCCC1(CC)CN(c2ccccc2)c2cc(SC)c(OCC(C)(F)C(=O)O)cc2S(=O)(=O)C1 (stereo not shown) [Example 34]
// query For the pair A and B , which entry has the numerically smaller recorded pIC50? Respond with the label that goes with your answer.
// result A

[P] CCCCC1(CCCC)CN(c2ccccc2)c2cc(SC)c(OCC(C)(O)C(=O)O)cc2S(=O)(=O)C1 (racemic) [Example 19]
[Q] CCCCC1(CC)CN(c2ccc(F)cc2)c2cc(SC)c(OCCC(=O)O)cc2S(=O)(=O)C1 (racemic)
[R] CCCCC1(CC)CN(c2ccccc2)c2cc(SC)c(OCC(C)(F)C(=O)O)cc2S(=O)(=O)C1 (single isomer, unassigned) [35, diastereomer 1]
// query Arrange items by their pIC50 values in increasing order. Respond with the label ranking, as requested.
// result P, Q, R

[I] CCCCC1(CCCC)CN(c2ccccc2)c2cc(SC)c(OCC(C)(O)C(=O)O)cc2S(=O)(=O)C1 (single isomer, unassigned) [Example 21]
[II] CCCCC1(CC)CN(c2ccccc2)c2cc(Cl)c(OC(C)CC(=O)O)cc2S(=O)(=O)C1 (single isomer, unassigned) [30, diastereomer 2]
// query Given the listed records, identify the one among I and II with higher pIC50. Respond with the label that goes with your answer.
// result II
(II: 6.49, I: 6.22)

---

target_system: Human IBAT (Homo sapiens, UniProt Q12908)
Construct: Puromycin-selected
Sequence (Q12908 whole entry): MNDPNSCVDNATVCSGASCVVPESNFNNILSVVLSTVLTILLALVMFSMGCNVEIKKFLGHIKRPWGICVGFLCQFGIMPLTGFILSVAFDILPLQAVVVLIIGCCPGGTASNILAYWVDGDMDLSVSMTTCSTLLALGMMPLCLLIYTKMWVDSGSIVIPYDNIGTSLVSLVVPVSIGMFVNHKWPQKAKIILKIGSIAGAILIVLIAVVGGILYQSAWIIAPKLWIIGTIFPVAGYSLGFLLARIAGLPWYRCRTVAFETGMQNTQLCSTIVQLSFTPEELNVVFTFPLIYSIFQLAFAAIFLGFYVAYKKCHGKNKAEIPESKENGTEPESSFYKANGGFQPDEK
assay_method_text: IBAT (h/m) assay, human IBAT-overexpressing cells, 3H-taurocholic acid uptake
condition_description: 0.25 μM 3H-taurocholic acid and 5 μM cold taurocholic acid, 20 minutes, read-out: hIBAT IC50
measure_name: IC50 (nM)

[[record]]
compound = "CCCCC1(CC)CN(c2ccccc2)c2cc(SC)c(OCC(N)C(=O)O)cc2S(=O)(=O)C1 (stereo not shown) [Example 28]"
readout_number = 45

[[record]]
compound = "CCCCC1(C)CN(c2ccc(F)cc2)c2cc(SC)c(OCC(O)C(=O)O)cc2S(=O)(=O)C1 (stereo not shown) [Example 51]"
readout_number = 5


[I] CCCCC1(CC)CN(c2ccccc2)c2cc(SC)c(OCC(O)C(=O)O)cc2S(=O)(=O)C1 (single isomer, unassigned) [40, diastereomer 3]
[II] CCCCC1(C)CN(c2ccc(F)cc2)c2cc(SC)c(OCCC(=O)O)cc2S(=O)(=O)C1 (racemic) [Example 49]
// query Given the listed records, identify the one among I and II with higher IC50. Respond with the label that goes with your answer.
// result II
